Exercise: for every item that follows, state its recorded DC50.
test-system: SMARCA4 (Homo sapiens)
Sequence (P51532 whole entry): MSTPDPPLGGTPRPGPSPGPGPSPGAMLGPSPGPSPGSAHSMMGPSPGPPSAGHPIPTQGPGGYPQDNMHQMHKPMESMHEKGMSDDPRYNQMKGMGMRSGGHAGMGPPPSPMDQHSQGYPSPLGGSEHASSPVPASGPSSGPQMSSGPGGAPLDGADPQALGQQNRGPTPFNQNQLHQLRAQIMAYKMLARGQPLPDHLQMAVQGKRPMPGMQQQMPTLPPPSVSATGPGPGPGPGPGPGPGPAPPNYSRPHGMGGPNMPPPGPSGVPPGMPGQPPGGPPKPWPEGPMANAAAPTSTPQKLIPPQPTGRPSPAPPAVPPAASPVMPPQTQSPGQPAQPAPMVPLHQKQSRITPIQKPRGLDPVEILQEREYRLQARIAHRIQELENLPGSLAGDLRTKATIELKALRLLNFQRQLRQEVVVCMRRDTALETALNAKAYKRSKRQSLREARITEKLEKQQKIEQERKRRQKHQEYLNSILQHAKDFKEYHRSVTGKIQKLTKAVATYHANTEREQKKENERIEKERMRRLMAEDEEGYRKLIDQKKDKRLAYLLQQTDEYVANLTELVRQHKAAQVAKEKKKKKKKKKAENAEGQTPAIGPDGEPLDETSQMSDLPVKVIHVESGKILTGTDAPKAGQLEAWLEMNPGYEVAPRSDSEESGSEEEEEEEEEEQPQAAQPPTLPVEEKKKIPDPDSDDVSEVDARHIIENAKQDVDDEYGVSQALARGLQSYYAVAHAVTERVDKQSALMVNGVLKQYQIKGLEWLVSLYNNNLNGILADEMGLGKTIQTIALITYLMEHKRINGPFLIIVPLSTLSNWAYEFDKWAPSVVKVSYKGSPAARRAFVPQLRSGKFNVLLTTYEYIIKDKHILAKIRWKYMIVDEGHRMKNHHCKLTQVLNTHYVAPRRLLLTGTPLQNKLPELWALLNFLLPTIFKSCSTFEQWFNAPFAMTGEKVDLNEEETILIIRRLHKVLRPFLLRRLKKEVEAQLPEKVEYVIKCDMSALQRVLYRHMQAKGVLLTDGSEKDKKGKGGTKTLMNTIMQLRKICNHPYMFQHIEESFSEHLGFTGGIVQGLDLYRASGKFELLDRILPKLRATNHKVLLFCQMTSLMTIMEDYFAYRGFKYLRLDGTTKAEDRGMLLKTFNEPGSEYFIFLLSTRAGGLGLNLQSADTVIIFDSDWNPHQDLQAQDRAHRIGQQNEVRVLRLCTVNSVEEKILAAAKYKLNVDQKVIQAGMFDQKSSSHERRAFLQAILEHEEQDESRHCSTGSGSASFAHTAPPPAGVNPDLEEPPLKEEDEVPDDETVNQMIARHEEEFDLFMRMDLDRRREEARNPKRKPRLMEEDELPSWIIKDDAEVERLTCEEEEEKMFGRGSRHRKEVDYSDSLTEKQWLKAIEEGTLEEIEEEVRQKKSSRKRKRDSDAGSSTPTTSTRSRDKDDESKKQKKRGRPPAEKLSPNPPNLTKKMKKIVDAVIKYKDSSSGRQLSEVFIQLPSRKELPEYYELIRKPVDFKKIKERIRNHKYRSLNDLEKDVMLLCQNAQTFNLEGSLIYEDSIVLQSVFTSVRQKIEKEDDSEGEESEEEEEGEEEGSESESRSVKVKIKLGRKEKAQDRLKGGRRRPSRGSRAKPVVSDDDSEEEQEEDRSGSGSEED
test: HiBiT assay for protein degradation, Hela SMARCA4-HiBiT cells (A series)
Format: cell-based
Design: fuse HiBiT to the carboxy terminus of SMARCA2 (Promega CS302365) or SMARCA4 (Promega CS3023225); host or cells: HeLa (CRISPR/Cas9 HiBiT knock-in)
measurement-setup: Hela SMARCA4-HiBiT cells, 24 hours treatment; read-out: SMARC A4 Hela HiBit DC50

Example compounds with recorded DC50:
[[record]]
query_smiles = "Cc1ncsc1-c1ccc([C@@H](NC(=O)[C@@H]2C[C@@H](O)CN2C(=O)[C@@H](n2cc(C3CC3)nn2)C(C)(C)C)C(=O)N2CCC3(CCC(CN4CCC(c5ccc6c(c5)-n5c(nc(=O)c7c(Br)cccc75)C65CCCCC5)CC4)CC3)CC2)cc1"
test_system = "SMARCA4 (Homo sapiens)"
result = "< 10 nM"

[[record]]
query_smiles = "Cc1ccccc1-c1ccc([C@H](CN2CCOCC2)NC(=O)[C@@H]2C[C@@H](O)CN2C(=O)[C@@H](n2cc([C@H]3CC[C@H](CN4CCC(c5ccc6c(c5)-n5c(nc(=O)c7c(Cl)cccc75)C65CCCCC5)CC4)CC3)nn2)C(C)(C)C)cc1"
test_system = "SMARCA4 (Homo sapiens)"
result = "100 to 1000 nM"


Reported DC50 of `Cc1ncsc1-c1ccc([C@H](CN2CC3(COC3)C2)NC(=O)[C@@H]2C[C@@H](O)CN2C(=O)[C@@H](n2cc([C@H]3CC[C@H](CN4CCC(c5ccc6c(c5)-n5c(nc(=O)c7c(Cl)cccc75)C6(C)C)CC4)CC3)nn2)C(C)(C)C)cc1` : > 1000 nM

###

test-system: SMARCA2 (Homo sapiens)
test: HiBiT assay for protein degradation, Hela SMARCA2-HiBiT cells (A series)
Format: cell-based
Design: Hela cells were genetically modified via CRISPR/Cas9 to fuse HiBiT to the carboxy terminus of SMARCA2; host or cells: HeLa (CRISPR/Cas9 HiBiT knock-in)
measurement-setup: Hela SMARCA2-HiBiT cells, 24 hours treatment; read-out: SMARC A2 Hela HiBit DC50
measured-endpoint: DC50

Example compounds with recorded DC50:
[[record]]
compound = "Cc1ncsc1-c1ccc([C@H](CN2CCOCC2)NC(=O)[C@@H]2C[C@@H](O)CN2C(=O)[C@H](C2CCCCC2)n2cc([C@H]3CC[C@H](CN4CCC[C@H](c5ccc6c(c5)-n5c(nc(=O)c7c(Cl)cccc75)C65CCCCC5)C4)CC3)nn2)cc1 [Compound A131]"
test_system = "SMARCA2 (Homo sapiens)"
measured_endpoint = "DC50"
result = "0.01 to 0.1 µM"

[[record]]
compound = "Cc1ncsc1-c1ccc([C@H](CN2CCOCC2)NC(=O)[C@@H]2C[C@@H](O)CN2C(=O)[C@H](C2CCCCC2)n2cc([C@H]3CC[C@H](CN4CCC(c5ccc6c(c5)-n5c(nc(=O)c7c(Cl)cccc75)C65CCCCC5)C4)CC3)nn2)cc1 (some centres unmarked) [Compound A130]"
test_system = "SMARCA2 (Homo sapiens)"
measured_endpoint = "DC50"
result = "0.01 to 0.1 µM"

[[record]]
compound = "O=C(O)c1ncsc1-c1ccc([C@H](CN2CCOCC2)NC(=O)[C@@H]2C[C@@H](O)CN2C(=O)[C@H](C2CCOCC2)n2cc([C@H]3CC[C@H](CN4CCC(c5ccc6c(c5)-n5c(nc(=O)c7c(Cl)cccc75)C65CCCCC5)CC4)CC3)nn2)cc1 [Compound A134]"
test_system = "SMARCA2 (Homo sapiens)"
measured_endpoint = "DC50"
result = "0.1 to 1 µM"


Dear colleague, could you send me DC50 for each of the items below? Thanks.
1. Cc1ncsc1-c1ccc([C@H](C)NC(=O)[C@@H]2C[C@@H](O)CN2C(=O)[C@@H](n2cc([C@H]3CC[C@H](CN4CCC(c5ccc6c(c5)-n5c(nc(=O)c7c(Cl)cccc75)C6(C)C)CC4)CC3)nn2)C(C)(C)C)cc1 [Compound A89]
2. Cc1ccccc1-c1ccc([C@H](CN2CCOCC2)NC(=O)[C@@H]2C[C@@H](O)CN2C(=O)[C@@H](n2cc([C@H]3CC[C@H](CN4CCC(c5ccc6c(c5)-n5c(nc(=O)c7c(Cl)cccc75)C65CCCCC5)CC4)CC3)nn2)C(C)(C)C)cc1 [Compound A163]
3. CC(C)(C)[C@@H](C(=O)N1C[C@H](O)C[C@H]1C(=O)N[C@@H](CN1CCOCC1)c1ccc(-c2ccncc2)cc1)n1cc([C@H]2CC[C@H](CN3CCC(c4ccc5c(c4)-n4c(nc(=O)c6c(Cl)cccc64)C54CCCCC4)CC3)CC2)nn1 [Compound A172]

< 0.01 µM
< 0.01 µM
< 0.01 µM

Dear colleague, could you send me DC50 for each of the items below? Thanks.
1. Cc1ncsc1-c1ccc([C@H](C)NC(=O)[C@@H]2C[C@@H](O)CN2C(=O)[C@H](C2CCN(C(=O)[C@H]3CC[C@H](CN4CCC(c5ccc6c(c5)-n5c(nc(=O)c7c(Br)cccc75)C65CCCCC5)CC4)CC3)CC2)n2cc(C3CC3)nn2)cc1 [Compound A132]
2. Cc1ncsc1-c1ccc([C@H](C)NC(=O)[C@@H]2C[C@@H](O)CN2C(=O)[C@@H](NC(=O)[C@H]2CC[C@H](CN3CCC(c4ccc5c(c4)-n4c(nc(=O)c6c(Br)cccc64)C54CCCCC4)CC3)CC2)C(C)(C)C)cc1 [Compound A41]
3. Cc1ncsc1-c1ccc([C@H](C)NC(=O)[C@@H]2C[C@@H](O)CN2C(=O)[C@H](C2CCN(C(=O)[C@@H]3COCCO3)CC2)n2cc([C@H]3CC[C@H](CN4CCC(c5ccc6c(c5)-n5c(nc(=O)c7c(Cl)cccc75)C65CCCCC5)CC4)CC3)nn2)cc1 [Compound A113]
4. Cc1ncsc1-c1ccc([C@H](CN2CCOCC2)NC(=O)[C@@H]2C[C@@H](O)CN2C(=O)[C@@H](n2cc([C@H]3CC[C@H](CN4CCC(c5ccc6c(c5)-n5c(nc(=O)c7c(Br)cccc75)C65CCCCC5)CC4)CC3)nn2)C(C)(C)O)cc1 [Compound A160]
5. Cc1ncsc1-c1ccc([C@H](C)NC(=O)[C@@H]2C[C@@H](O)CN2C(=O)[C@H](C2CCOCC2)n2cc([C@H]3CC[C@H](CN4CCC(c5ccc6c(c5)-n5c(nc(=O)c7c(Cl)cccc75)C65CCCCC5)CC4)CC3)nn2)cc1 [Compound A120]

1. < 0.01 µM
2. < 0.1 µM
3. < 0.01 µM
4. < 0.01 µM
5. < 0.01 µM

###

test-system: SMARCA2 (Homo sapiens, UniProt P51531)
Sequence (P51531 whole entry): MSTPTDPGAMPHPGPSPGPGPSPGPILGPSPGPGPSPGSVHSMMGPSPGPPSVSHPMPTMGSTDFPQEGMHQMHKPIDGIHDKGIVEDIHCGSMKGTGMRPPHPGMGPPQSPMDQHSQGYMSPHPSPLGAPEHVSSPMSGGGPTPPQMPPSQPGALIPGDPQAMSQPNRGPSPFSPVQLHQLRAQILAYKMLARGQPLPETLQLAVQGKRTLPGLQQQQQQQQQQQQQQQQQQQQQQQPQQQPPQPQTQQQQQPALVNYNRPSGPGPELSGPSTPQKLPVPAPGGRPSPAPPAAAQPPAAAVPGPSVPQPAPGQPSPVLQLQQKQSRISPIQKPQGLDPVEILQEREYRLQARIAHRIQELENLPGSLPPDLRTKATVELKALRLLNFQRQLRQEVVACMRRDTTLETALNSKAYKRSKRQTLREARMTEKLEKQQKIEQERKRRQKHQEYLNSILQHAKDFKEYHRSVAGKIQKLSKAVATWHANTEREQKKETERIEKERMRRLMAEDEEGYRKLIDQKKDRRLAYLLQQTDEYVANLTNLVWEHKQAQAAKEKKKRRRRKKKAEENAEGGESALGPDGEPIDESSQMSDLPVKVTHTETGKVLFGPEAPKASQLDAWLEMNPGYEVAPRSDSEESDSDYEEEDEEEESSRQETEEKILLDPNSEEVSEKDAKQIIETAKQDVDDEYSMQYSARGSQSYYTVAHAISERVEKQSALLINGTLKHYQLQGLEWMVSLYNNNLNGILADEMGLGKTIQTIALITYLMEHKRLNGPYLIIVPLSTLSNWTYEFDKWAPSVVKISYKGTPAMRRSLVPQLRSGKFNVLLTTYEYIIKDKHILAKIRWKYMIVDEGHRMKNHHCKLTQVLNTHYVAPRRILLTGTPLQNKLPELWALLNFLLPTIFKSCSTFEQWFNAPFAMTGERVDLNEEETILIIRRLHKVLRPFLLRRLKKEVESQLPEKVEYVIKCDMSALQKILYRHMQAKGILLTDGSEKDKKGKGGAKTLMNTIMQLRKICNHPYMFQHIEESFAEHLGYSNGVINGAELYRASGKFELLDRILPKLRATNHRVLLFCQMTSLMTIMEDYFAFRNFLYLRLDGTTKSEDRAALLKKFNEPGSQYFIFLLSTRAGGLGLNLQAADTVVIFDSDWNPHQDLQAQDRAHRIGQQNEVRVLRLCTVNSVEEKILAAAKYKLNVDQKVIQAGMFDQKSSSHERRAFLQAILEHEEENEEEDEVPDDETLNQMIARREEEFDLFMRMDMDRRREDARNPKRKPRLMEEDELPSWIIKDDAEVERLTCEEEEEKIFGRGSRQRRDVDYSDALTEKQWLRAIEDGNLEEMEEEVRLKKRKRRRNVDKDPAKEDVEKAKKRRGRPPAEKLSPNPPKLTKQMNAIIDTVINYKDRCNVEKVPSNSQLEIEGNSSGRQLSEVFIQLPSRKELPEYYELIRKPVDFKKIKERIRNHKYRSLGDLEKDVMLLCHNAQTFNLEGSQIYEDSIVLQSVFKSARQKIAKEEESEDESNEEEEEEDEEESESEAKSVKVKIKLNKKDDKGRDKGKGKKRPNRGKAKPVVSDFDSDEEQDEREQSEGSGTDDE
test: HiBit assay in engineered HT1080 CRISPR knock-in cell, 6 hrs (B series), SMARCA2
Type: cell-based
measurement-setup: HT-1080, HT1080 CRISPR knock-in cells, 6 hrs incubation; read-out: SMARC A2 HT1080 HiBit Dmax (%)
measured-endpoint: Dmax

Dear colleague, could you send me Dmax for each of the items below? Thanks.
1. Cc1cc(-c2scnc2C)ccc1[C@H](C)NC(=O)[C@@H]1C[C@@H](O)CN1C(=O)[C@@H](n1cc([C@H]2CC[C@H](CN3CCC(c4ccc5c(c4)-n4c(nc(=O)c6c(Cl)cccc64)C5(C)C)CC3)CC2)nn1)C(C)(C)C
2. Cc1ncsc1-c1ccc([C@H](CN2CCOCC2)NC(=O)[C@@H]2C[C@@H](O)CN2C(=O)[C@@H](c2cc(O[C@H]3CC[C@H](CN4CCC(c5ccc6c(c5)-n5c(nc(=O)c7c(Cl)cccc75)C6(C)C)CC4)CC3)no2)C(C)C)cc1
3. Cc1ncsc1-c1ccc([C@H](C)NC(=O)[C@@H]2C[C@@H](O)CN2C(=O)[C@@H](NC(=O)CCCCn2cc(-c3ccc4c(c3)C(C)(C)c3nc(=O)c5c(Cl)cccc5n3-4)cn2)C(C)(C)C)cc1
4. Cc1ncsc1-c1ccc([C@H](C)NC(=O)[C@@H]2C[C@@H](O)CN2C(=O)[C@H](C(C)C)n2cc(CCN3CCC(c4ccc5c(c4)-n4c(nc(=O)c6c(Cl)cccc64)C5(C)C)CC3)nn2)cc1
5. Cc1ncsc1-c1ccc([C@H](C)NC(=O)[C@@H]2C[C@@H](O)CN2C(=O)[C@H](c2cc(N3CCC(C(=O)N4CCC(c5ccc6c(c5)C(C)(C)c5nc(=O)c7c(Cl)cccc7n5-6)CC4)CC3)no2)C(C)C)cc1
6. Cc1ncsc1-c1ccc([C@H](C)NC(=O)[C@@H]2C[C@@H](O)CN2C(=O)[C@@H](c2cc(N3CCC(CN4CCC(c5cccc6c5C(C)(C)c5nc(=O)c7c(Cl)cccc7n5-6)CC4)CC3)no2)C(C)C)cc1

["> 90%", "> 90%", "50 to 69%", "70 to 90%", "> 90%", "> 90%"]

Dear colleague, could you send me Dmax for each of the items below? Thanks.
1. Cc1ncsc1-c1ccc([C@H](CC(=O)NCCN2CCC(c3ccc4c(c3)-n3c(nc(=O)c5c(Cl)cccc53)C4(C)C)CC2)NC(=O)[C@@H]2C[C@@H](O)CN2C(=O)[C@@H](NC(=O)C2(F)CC2)C(C)(C)C)cc1
2. Cc1ncsc1-c1ccc([C@H](C)NC(=O)[C@@H]2C[C@@H](O)CN2C(=O)[C@@H](c2cc(OCC3(CN4CCC(c5ccc6c(c5)C(C)(C)c5nc(=O)c7c(Cl)cccc7n5-6)CC4)CC3)no2)C(C)C)cc1

1. < 50%
2. 70 to 90%

Dear colleague, could you send me Dmax for each of the items below? Thanks.
1. C[C@H](NC(=O)[C@@H]1C[C@@H](O)CN1C(=O)[C@@H](n1cc([C@H]2CC[C@H](CN3CCC(c4ccc5c(c4)-n4c(nc(=O)c6c(Cl)cccc64)C5(C)C)CC3)CC2)nn1)C(C)(C)C)c1ccc(-c2scnc2C#N)cc1
2. Cc1ncsc1-c1ccc([C@H](C)NC(=O)[C@@H]2C[C@@H](O)CN2C(=O)[C@@H](NC(=O)CCCCN2CCC(c3ccc4c(c3)-n3c(nc(=O)c5c(Cl)cccc53)C4(C)C)CC2)C(C)(C)C)cc1
3. Cc1ncsc1-c1ccc([C@H](CN2CCOCC2)NC(=O)[C@@H]2C[C@@H](O)CN2C(=O)[C@@H](c2cc(O[C@H]3CC[C@H](CN4CCC(c5ccc6c(c5)-n5c(nc(=O)c7c(Cl)cccc75)C65CCCCC5)CC4)CC3)no2)C(C)C)cc1
4. Cc1ncsc1-c1ccc([C@H](C)NC(=O)[C@@H]2C[C@@H](O)CN2C(=O)[C@@H](c2cc(OCCCN3CCC(c4ccc5c(c4)-n4c(nc(=O)c6c(Cl)cccc64)C5(C)C)CC3)no2)C(C)C)cc1

["> 90%", "70 to 90%", "> 90%", "> 90%"]
